# Test system: Saccharomyces cerevisiae
# test: protein stability index of tFT-peptide fusion in wild type (PSI (0-1 scale)); higher = more stable (slower turnover)
# study_conditions: genetic background: wild type

residue_codes	protein stability index
RLIQPLPVDFLN	0.716
GLYMSSVGCWFR	0.299
AITLPMCPLLFR	0.27
RLIQPLPVQFLM	0.13
RLIQPNPVQFLN	0.0748
RLIQPLPVQFLH	0.301
PSLAASFWKVVG	0.31
PDKRNHLIKLLNN	0.137
NKILRQKMNHQN	0.113
CTSCGYKDRTNN	0.634
ARWRVGLWRGASG	0.662
PDPRNHLIKLLN	0.15
KKHRKGQKQKIN	0.109
RSLRVLLYLYFR	0.235
ARWLVGLWRGAS	0.419
FSMRHTFRYWVN	0.0782
RSLRVRLPLYFR	0.187
LKILRQKMNVQN	0.226
KKHKKGQYQKIN	0.0851
AHTLPMCPLLLR	0.346
KKHMKGQKQKIN	0.103
ARIRVGLWRGAS	0.599
RFLRVLLPLYFR	0.381
RVTRLDAIYFWI	0.523
PDKRHHLIKLLN	0.113
PSLAASFWRVEG	0.672
CLVALPILLFFR	0.0608
PSMAASFWRVVG	0.126
PSLAASFWRIVG	0.143
FSMRWTFYYWVN	0.0564
CRWRVGLWRGAS	0.276
RSLRCLLPLYFR	0.408
CTSCGYKFRTLN	0.132
PDWRNHLIKLLN	0.144
PDKRNHGIKLLN	0.41
LKHKKGQKQKIN	0.094
KKHKKGQKKKIN	0.523
RLIQPLPEQFLN	0.29
CTSCGYKTRTNN	0.632
ARWRVGLWRWAS	0.0999
RLIQPLPVIFLN	0.138

###

# System: Saccharomyces cerevisiae
# test: protein stability index of tFT-peptide fusion (C-terminal peptide) (PSI (0-1 scale)); higher = more stable (slower turnover)
# study_conditions: genetic background: wild type; temperature: 30 C
Assign true (1) to entries whose protein stability index meets or exceeds 0.7; assign false (0) to the rest.

residue_codes	label_value
PPRLHPNTPPLL	true (1)
SVVRCWVLLGVA	false (0)
AQPRGLLVCPFL	false (0)
VPCILLFSHFKH	false (0)
PLRQRCIYDVPI	true (1)
PPSPLPPPPPHP	false (0)
VFTGVGFVPLVC	false (0)
MLIAISASAARF	false (0)
KMSRKIKIRERG	false (0)
CLCHAPLPLAAP	false (0)
TGCEVSINSCVE	false (0)

###

Form field: protein stability index (one value per entry).
# Test system: Saccharomyces cerevisiae
# test: protein stability index of tFT-peptide fusion (C-terminal peptide) (PSI (0-1 scale)); higher = more stable (slower turnover)
# study_conditions: genetic background: das1 deletion; temperature: 30 C

residue_codes	protein stability index
FCSLLVLLFFGV	0.334
NLVCLDPFLVFV	0.478
CGFVCGLCLCRV	0.364
FCCLIGYIWYGW	0.392
LSPPLRHRLTPP	0.687
CKKATILRIKSM	0.643
FLGPMRVLVSSV	0.424
LRLCMVFAWFLT	0.351
ACLLCVCVESRE	0.414
YHDKLRAIEKFF	0.635
